The reported numbers originate from the NIST ThermoML archive (doi:10.1021/acs.jced.8b00236).

# speed of sound values compiled below
Method Notes: mn = molality of the nth substance listed, in mol/kg
Test Conditions: 293.15 K; 75 kPa; Liquid; Frequency=3 MHz; Single path-length method; m1 = 1.132
The reply should be a number in m/s, with the unit left off.

Consider the following illustrative entries.
| Compound | speed of sound, m/s |
| --- | --- |
| NCCCC(=O)O [4-aminobutanoic acid] + O | 1571.5 |
| NCC(=O)O [2-aminoacetic acid] + O | 1541 |
| NCCCCCC(=O)O [6-aminohexanoic acid] + O | 1606 |

Turning now to a further record.
speed of sound for NCCC(=O)O [3-aminopropanoic acid] + O is 1552.7

----------
Method Notes: mn = molality of the nth substance listed, in mol/kg
Test Conditions: 303.15 K; 75 kPa; Liquid; Vibrating tube method; m1 = 1.132
# mass density values compiled below
The reply should be a number in kg/m3, with the unit left off.

| Compound | Numeric Readout |
| --- | --- |
| NCCCC(=O)O [4-aminobutanoic acid] + O | 1026.12 |
| NCCCCCC(=O)O [6-aminohexanoic acid] + O | 1022.39 |
| NCC(=O)O [2-aminoacetic acid] + O | 1026.27 |

Turning now to a further record.
mass density for NCCC(=O)O [3-aminopropanoic acid] + O is 1027.33

----------
Method Notes: mn = molality of the nth substance listed, in mol/kg
Test Conditions: 303.15 K; 75 kPa; Liquid; Capillary tube (Ostwald / Ubbelohde) method; m1 = 1.132
± gives the expanded uncertainty stated by the source.
Quantity: viscosity

Consider the following illustrative entries.
| Compound | viscosity |
| --- | --- |
| NCCC(=O)O [3-aminopropanoic acid] + O | 1.042 ± 0.022 mPa·s |
| NCCCCCC(=O)O [6-aminohexanoic acid] + O | 1.423 ± 0.03 mPa·s |

viscosity for NCC(=O)O [2-aminoacetic acid] + O is 0.929 ± 0.019 mPa·s

viscosity for NCCCC(=O)O [4-aminobutanoic acid] + O is 1.156 ± 0.024 mPa·s

----------
# viscosity values compiled below
Method Notes: mn = molality of the nth substance listed, in mol/kg
Test Conditions: 298.15 K; 75 kPa; Liquid; Capillary tube (Ostwald / Ubbelohde) method; m2 = 0
Numbers after ± are expanded uncertainties.

| Molecule | viscosity |
| --- | --- |
| O [water] + NCCC(=O)O | 0.8929 ± 0.019 mPa·s |
| O [water] + NCCCCCC(=O)O | 0.893 ± 0.019 mPa·s |
| O [water] + NCCCC(=O)O | 0.893 ± 0.019 mPa·s |
| O [water] + NCCCCC(=O)O | 0.893 ± 0.019 mPa·s |

viscosity for O [water] + NCC(=O)O is 0.893 ± 0.019 mPa·s

----------
# mass density values compiled below
Method Notes: mn = molality of the nth substance listed, in mol/kg
Test Conditions: 298.15 K; 75 kPa; Liquid; Vibrating tube method; m1 = 1.132
The reply should be a number in kg/m3, with the unit left off.

| Compound | mass density (kg/m3) |
| --- | --- |
| NCCCCCC(=O)O [6-aminohexanoic acid] + O | 1024.11 |
| NCCC(=O)O [3-aminopropanoic acid] + O | 1029.1 |
| NCC(=O)O [2-aminoacetic acid] + O | 1027.89 |

Turning now to a further record.
mass density for NCCCC(=O)O [4-aminobutanoic acid] + O is 1027.75

----------
# viscosity values compiled below
Method Notes: mn = molality of the nth substance listed, in mol/kg
Test Conditions: 308.15 K; 75 kPa; Liquid; Capillary tube (Ostwald / Ubbelohde) method; m1 = 1.132
The reply should be a number in mPa·s, with the unit left off.

Consider the following illustrative entries.
| Compound | Numeric Readout |
| --- | --- |
| NCC(=O)O [2-aminoacetic acid] + O | 0.839 |
| NCCCC(=O)O [4-aminobutanoic acid] + O | 1.041 |

viscosity for NCCCCCC(=O)O [6-aminohexanoic acid] + O is 1.267

viscosity for NCCC(=O)O [3-aminopropanoic acid] + O is 0.9126

----------
Method Notes: mn = molality of the nth substance listed, in mol/kg
Test Conditions: 303.15 K; 75 kPa; Liquid; Capillary tube (Ostwald / Ubbelohde) method; m2 = 0
Quantity: viscosity (mPa·s)
The reply should be a number in mPa·s, with the unit left off.

Consider the following illustrative entries.
| Molecule | Unit Abbreviation | Numeric Readout |
| --- | --- | --- |
| O [water] + NCCCC(=O)O | mPa·s | 0.797 |
| O [water] + NCCCCC(=O)O | mPa·s | 0.797 |
| O [water] + NCC(=O)O | mPa·s | 0.797 |
| O [water] + NCCC(=O)O | mPa·s | 0.7965 |

Turning now to a further record.
viscosity for O [water] + NCCCCCC(=O)O is 0.797

----------
# viscosity values compiled below
Method Notes: mn = molality of the nth substance listed, in mol/kg
Test Conditions: 288.15 K; 75 kPa; Liquid; Capillary tube (Ostwald / Ubbelohde) method; m1 = 1.132
The reply should be a number in mPa·s, with the unit left off.

| Molecule | viscosity (mPa·s) |
| --- | --- |
| NCCC(=O)O [3-aminopropanoic acid] + O | 1.46 |
| NCCCC(=O)O [4-aminobutanoic acid] + O | 1.672 |
| NCCCCCC(=O)O [6-aminohexanoic acid] + O | 2.103 |

Turning now to a further record.
viscosity for NCC(=O)O [2-aminoacetic acid] + O is 1.318

----------
Method Notes: mn = molality of the nth substance listed, in mol/kg
Test Conditions: 288.15 K; 75 kPa; Liquid; Capillary tube (Ostwald / Ubbelohde) method; m2 = 0
Quantity: viscosity (mPa·s)
The reply should be a number in mPa·s, with the unit left off.

Consider the following illustrative entries.
| Compound | Unit Abbreviation | Numeric Readout |
| --- | --- | --- |
| O [water] + NCCCC(=O)O | mPa·s | 1.146 |
| O [water] + NCCC(=O)O | mPa·s | 1.146 |
| O [water] + NCC(=O)O | mPa·s | 1.146 |
| O [water] + NCCCCC(=O)O | mPa·s | 1.146 |

Turning now to a further record.
viscosity for O [water] + NCCCCCC(=O)O is 1.146

----------
# viscosity values compiled below
Method Notes: mn = molality of the nth substance listed, in mol/kg
Test Conditions: 293.15 K; 75 kPa; Liquid; Capillary tube (Ostwald / Ubbelohde) method; m2 = 0
The reply should be a number in mPa·s, with the unit left off.

| Molecule | Quantity | Numeric Readout |
| --- | --- | --- |
| O [water] + NCCCCC(=O)O | viscosity | 1.004 |
| O [water] + NCC(=O)O | viscosity | 1.007 |
| O [water] + NCCC(=O)O | viscosity | 1.004 |
| O [water] + NCCCCCC(=O)O | viscosity | 1.004 |

viscosity for O [water] + NCCCC(=O)O is 1.004

----------
Method Notes: mn = molality of the nth substance listed, in mol/kg
Test Conditions: 308.15 K; 75 kPa; Liquid; Capillary tube (Ostwald / Ubbelohde) method; m2 = 0
Numbers after ± are expanded uncertainties.
# viscosity values compiled below

Consider the following illustrative entries.
| Compound | viscosity |
| --- | --- |
| O [water] + NCCCCC(=O)O | 0.719 ± 0.015 mPa·s |
| O [water] + NCC(=O)O | 0.719 ± 0.015 mPa·s |
| O [water] + NCCCC(=O)O | 0.719 ± 0.015 mPa·s |
| O [water] + NCCCCCC(=O)O | 0.719 ± 0.015 mPa·s |

viscosity for O [water] + NCCC(=O)O is 0.7187 ± 0.015 mPa·s

----------
Method Notes: mn = molality of the nth substance listed, in mol/kg
Test Conditions: 298.15 K; 75 kPa; Liquid; Capillary tube (Ostwald / Ubbelohde) method; m1 = 1.132
# viscosity values compiled below
The reply should be a number in mPa·s, with the unit left off.

Consider the following illustrative entries.
| Molecule | Quantity | Numeric Readout |
| --- | --- | --- |
| NCC(=O)O [2-aminoacetic acid] + O | viscosity | 1.026 |
| NCCCC(=O)O [4-aminobutanoic acid] + O | viscosity | 1.307 |
| NCCC(=O)O [3-aminopropanoic acid] + O | viscosity | 1.146 |

Turning now to a further record.
viscosity for NCCCCCC(=O)O [6-aminohexanoic acid] + O is 1.59

----------
# viscosity values compiled below
Method Notes: mn = molality of the nth substance listed, in mol/kg
Test Conditions: 293.15 K; 75 kPa; Liquid; Capillary tube (Ostwald / Ubbelohde) method; m1 = 1.132
The reply should be a number in mPa·s, with the unit left off.

| Compound | Unit Abbreviation | viscosity |
| --- | --- | --- |
| NCCCCCC(=O)O [6-aminohexanoic acid] + O | mPa·s | 1.825 |
| NCCCC(=O)O [4-aminobutanoic acid] + O | mPa·s | 1.464 |
| NCC(=O)O [2-aminoacetic acid] + O | mPa·s | 1.166 |

Turning now to a further record.
viscosity for NCCC(=O)O [3-aminopropanoic acid] + O is 1.307
